System: Proteus vulgaris OX19
Test: MIC (minimum inhibitory concentration)
Format: cell-based

compound | target under test | MIC
CC[C@H]1OC(=O)[C@H](C)[C@@H](O[C@H]2C[C@@](C)(OC)[C@@H](O)[C@H](C)O2)[C@H](C)[C@@H](O[C@@H]2O[C@H](C)C[C@H](N(C)C)[C@H]2O)[C@](C)(O)C[C@@H](C)C(=O)[C@H](C)[C@@H](O)[C@]1(C)O [Erythromycin, reference compound] | Proteus vulgaris OX19 | 50 mg/L
CCC1OC(=O)CC(OC(=O)Cc2ccccc2)C(C)C(OC2OC(C)C(O)C(N(C)C)C2O)C(CC=O)CC(C)C(=O)C=CC(C)=CC1COC1OC(C)CC(OC)C1OC (stereo not shown) [Example 6, 3-O-phenylacetyl-4"-deoxydesmycosin] | Proteus vulgaris OX19 | 50 mg/L
CCC1OC(=O)CC(OC(=O)Cc2ccccc2)C(C)C(OC2OC(C)C(O)C(N(C)C)C2O)C(C)CC(C)C(=O)C=CC(C)=CC1COC1OC(C)CC(OC)C1OC (stereo not shown) [Example 10] | Proteus vulgaris OX19 | 100 mg/L
CC[C@H]1OC(=O)C[C@@H](O)[C@H](C)[C@@H](O[C@@H]2O[C@H](C)[C@@H](O[C@H]3C[C@@](C)(O)[C@@H](O)[C@H](C)O3)[C@H](N(C)C)[C@H]2O)[C@@H](CC=O)C[C@@H](C)C(=O)/C=C/C(C)=C/[C@@H]1CO[C@@H]1O[C@H](C)[C@@H](O)[C@@H](OC)[C@H]1OC [Tylosin, reference compound] | Proteus vulgaris OX19 | > 100 mg/L

---

Test system: Micrococcus flavus ATCC 10240
Test: MIC (minimum inhibitory concentration)
Format: cell-based
Conditions: ATCC10240; Micrococcus flavus ATCC 10240; read-out: MIC

compound | MIC
CCC1OC(=O)CC(OC(=O)c2ccccc2)C(C)C(OC2OC(C)C(O)C(N(C)C)C2O)C(CC=O)CC(C)C(=O)C=CC(C)=CC1COC1OC(C)CC(OC)C1OC (centres unmarked) | ≤ 0.05 µg/mL
CCC1OC(=O)CC(OC(C)=O)C(C)C(OC2OC(C)C(O)C(N(C)C)C2O)C(C)CC(C)C(=O)C=CC(C)=CC1COC1OC(C)CC(OC)C1OC (centres unmarked) | ≤ 0.05 µg/mL
CCC(=O)OC1CC(=O)OC(CC)C(COC2OC(C)CC(OC)C2OC)C=C(C)C=CC(=O)C(C)CC(C)C(OC2OC(C)C(O)C(N(C)C)C2O)C1C (centres unmarked) | ≤ 0.05 µg/mL
CCC1OC(=O)CC(OC(=O)c2ccccc2)C(C)C(OC2OC(C)C(O)C(N(C)C)C2O)C(C)CC(C)C(=O)C=CC(C)=CC1COC1OC(C)CC(OC)C1OC (centres unmarked) | ≤ 0.05 µg/mL
CCC(=O)OC1CC(=O)OC(CC)C(COC2OC(C)CC(OC)C2OC)C=C(C)C=CC(=O)C(C)CC(CC=O)C(OC2OC(C)C(O)C(N(C)C)C2O)C1C (centres unmarked) | ≤ 0.05 µg/mL
CCCC(=O)OC1CC(=O)OC(CC)C(COC2OC(C)CC(OC)C2OC)C=C(C)C=CC(=O)C(C)CC(CC=O)C(OC2OC(C)C(O)C(N(C)C)C2O)C1C (centres unmarked) | ≤ 0.05 µg/mL
CCC1OC(=O)CC(OC(C)=O)C(C)C(OC2OC(C)C(O)C(N(C)C)C2O)C(CC=O)CC(C)C(=O)C=CC(C)=CC1COC1OC(C)CC(OC)C1OC (centres unmarked) | ≤ 0.05 µg/mL
CCC1OC(=O)CC(OC(=O)CC(C)C)C(C)C(OC2OC(C)C(O)C(N(C)C)C2O)C(CC=O)CC(C)C(=O)C=CC(C)=CC1COC1OC(C)CC(OC)C1OC (centres unmarked) | ≤ 0.05 µg/mL
